System: HOP-62
Experiment: NCI tumour cell line growth inhibition, 48 h
The source made the active and inactive calls. Cut-off read from the data, not from the text of the source: active = GI50 up to about 1.1 µM and inactive = higher.
Just give me one of these, please: True (active), False (inactive)

// below: answered compounds
compound: Cc1ccc(S(=O)(=O)Oc2cc(-c3ccccc3)nc3ccccc23)cc1
experimental-system: HOP-62
cat: False
//
compound: Cc1nnc(SCc2nc(C#N)c(C#N)nc2CSc2nnc(C)s2)s1
experimental-system: HOP-62
cat: False
//
compound: CC(/C=C/NNC1=NN=C(c2ccccc2)C(c2ccccc2)N1)Sc1ccccc1N (stereo unspecified)
experimental-system: HOP-62
cat: False
//
compound: Cc1ccc(C)c(/C(=N\N=C(N)N)C2CC2)c1
experimental-system: HOP-62
cat: False

Qu. Assay outcome for "Nc1ncn([C@H]2C[C@H](O)[C@@H](CO)O2)c(=O)n1" : what was it?
Ans. False

Qu. Assay outcome for CC(Nc1cccc(Cl)c1)c1ccncc1 (stereo unspecified) : what was it?
Ans. False

Qu. Assay outcome for CN(C)CC1CC/C(=C\c2ccc(Cl)cc2)C1=O (stereo unspecified) : what was it?
Ans. False

Qu. Assay outcome for "COc1c(F)c(F)c(C(=O)/C=C2\Nc3ccccc3NC2=O)c(F)c1F" : what was it?
Ans. False

Qu. Assay outcome for "COc1ccc(/C(Cl)=C(\C=O)c2ccc(Cl)cc2)cc1" : what was it?
Ans. False

Qu. Assay outcome for CC1(O)CC(=O)c2c(cc3ccc(-c4c5c(c(O)c6c(O)cccc46)C(=O)CC(C)(O)C5)c(O)c3c2O)C1 (stereo unspecified) : what was it?
Ans. True

Qu. Assay outcome for CC1OC(=O)C2CC3CCCCC3C(/C=C/C3CCCC(C)N3C)C12 (stereo unspecified) : what was it?
Ans. False

----------
For each of the molecules below, state its GI50.
Test system: U-251
Experiment: NCI tumour cell line growth inhibition, 48 h
Calls of active or inactive are those of the source. Rule as the data show it: active = GI50 up to about 1.1 µM and inactive = higher.

Please report GI50 for every entry that follows.
1. CC1(C)CC(=O)c2c(nc3ccc4ccccc4c3c2-c2ccc(NC(=O)CCCCCCCCC(=O)Nc3ccc(-c4c5c(nc6ccc7ccccc7c46)CC(C)(C)CC5=O)cc3)cc2)C1
2. Nc1nc(Cl)c(N)c(NC23CC4CC(CC(C4)C2)C3)n1

Ans.
1. > 100 µM (inactive)
2. 1.66 µM (inactive)

----------
Tested on: OVCAR-5
Experiment: NCI tumour cell line growth inhibition, 48 h
Active and inactive are the calls of the source. No stated cut-off is given here; in the data, active = GI50 up to about 1.1 µM and inactive = higher.
measure-name: GI50

Previously resolved entries follow.
compound: COC(=O)C1=C(C)N2[C@H](C(=O)O)CS[C@@]2(C)[C@H](C(=O)OC)[C@H]1c1cccc([N+](=O)[O-])c1
GI50: > 100 µM (inactive)
--
compound: Cn1cnc([N+](=O)[O-])c1Sc1nc(N)nc2c1ncn2[C@H]1C[C@H](O)[C@@H](CO)O1
GI50: 3.08 µM (inactive)
--
compound: O=C(NNC(=O)c1ccncc1)c1ccncc1
GI50: > 100 µM (inactive)

Please report GI50 for every entry that follows.
1. CC(CC(=O)CO[C@H]1[C@H](O)[C@@H](O)[C@@H](O)[C@@H]2NC(=O)c3c(cc4c(c3O)OCO4)[C@H]21)OC1OC(CO)C(O)C(O)C1O (some centres not stated)
2. CC1CC2C3CCC4=CC(=O)C=CC4(C)C3(F)C(O)CC2(C)C1(O)C(=O)CO.Cc1nnc(NS(=O)(=O)c2ccc(/N=N/c3cc(/N=N/c4ccc(S(=O)(=O)Nc5nnc(C)s5)cc4)c4c(NC(=O)C(Cl)Cl)cccc4c3OC(=O)C(Cl)Cl)cc2)s1
3. COc1c(/C=C/C=O)cc2c(c1OC)OCO2
4. COc1ccc(-n2c3c(c4cc(O)ccc42)C(=O)c2ccccc2C3=O)cc1

Ans.
1: 1.26 µM (inactive); 2: 27.9 µM (inactive); 3: 7.41 µM (inactive); 4: 6.04 µM (inactive)

----------
Values of GI50 reported for HCT-15 appear below.
Give bare numbers, in µM.

Previously resolved entries follow.
molecule: COc1ccc(/C(Cl)=C(\C=O)c2ccc(Cl)cc2)cc1
assay-value: 3.41
--
molecule: N/N=C1N=C(Cl)/C(=C/c2ccco2)N\1
assay-value: 31.5
--
molecule: COC(=O)c1cc(/C=C/C(=O)Cc2ccccc2)cn1S(=O)(=O)c1ccccc1
assay-value: 7.38
--
molecule: CC(C)C1C(=O)N(c2c(F)c(F)c(F)c(F)c2F)C(=S)N1CC[S+]([O-])c1ccccc1 (configuration not stated)
assay-value: 16.7
--
molecule: CC(/C=C/NNC1=NN=C(c2ccccc2)C(c2ccccc2)N1)Sc1ccccc1N (configuration not stated)
assay-value: 4.89

Please report GI50 for every entry that follows.
1. CC(/C=C/c1ccc([N+](=O)[O-])o1)=N/N1CC(CN2CCOCC2)OC1=O (configuration not stated)
2. Cc1ccc(S(=O)(=O)Oc2cc(-c3ccccc3)nc3ccccc23)cc1
3. CCNc1cc2c3c(c1)CCCN3CCC2

Ans.
[16.5, 1.41, 19.6]

Please report GI50 for every entry that follows.
1. COc1ccc(/C=C2\Sc3nnc(CNc4ccc(Cl)cc4)n3N=C2c2cc(F)c(Cl)cc2Cl)cc1OC
2. Nc1nc(Cl)c(N)c(NC23CC4CC(CC(C4)C2)C3)n1
3. COc1ccc2c(c1)CCc1c(CO)c(COC(=O)NC(C)C)n(C)c1-2

Ans.
1. 15.9
2. 1.73
3. 13

----------
For each of the compounds below, state its GI50.
Tested on: NCI/ADR-RES
Assay: NCI tumour cell line growth inhibition, 48 h
The source made the active and inactive calls. No stated cut-off is given here; in the data, active = GI50 up to about 1.1 µM and inactive = higher.

Previously resolved entries follow.
compound: C=CN(C=C)C(=O)Cn1cc(-c2ccccc2)nn1
assay-value: > 100 µM (inactive)
//
compound: COC(=O)c1ccccc1CC1Cc2cc3c(cc2C1)CCC3
assay-value: > 100 µM (inactive)
//
compound: CCOC(=O)/C(C(=O)Nc1cccc(Cl)c1)=C(/N)N1CCCC1
assay-value: > 100 µM (inactive)

Please report GI50 for every entry that follows.
1. COC(=O)C[C@H](COCc1ccccc1)NC(=O)C[C@H](COCc1ccccc1)NC(=O)C[C@H](COCc1ccccc1)NC(=O)OC(C)(C)C
2. COc1ccc2c(c1)CN1C(=N2)CSC1c1cccc(Br)c1 (stereo unspecified)

Ans.
1: > 100 µM (inactive); 2: 48.8 µM (inactive)

Qu. Suppose we examine the compound CN(C)CC1CC/C(=C\c2ccc(Cl)cc2)C1=O (stereo unspecified) ; what GI50 value has been reported?
Ans. 3.24 µM (inactive)

----------
Tested on: M19-MEL
Assay: NCI tumour cell line growth inhibition, 48 h
The source made the active and inactive calls. No stated cut-off is given here; in the data, active = GI50 up to about 1.1 µM and inactive = higher.
Just give me one of these, please: 1 (yes) (active), 0 (no) (inactive)

// below: answered molecules
molecule: COc1ccc([C@H]2CC3C(=O)N(c4ccc(OC)cc4)C(=O)C3c3[nH]c4ccccc4c32)cc1 (some centres undefined)
cat: 0 (no)

molecule: CSc1sc(=S)sc1C(=O)N(C)c1ccccc1
cat: 0 (no)

molecule: COc1ccc(-c2cc(O)c3cc(Cl)ccc3n2)cc1
cat: 0 (no)

molecule: CCCCc1nccc2c(C)c3[nH]c4ccccc4c3cc12
cat: 0 (no)

Qu. Assay outcome for "NC1=NS(=O)(=O)N=C(N)C1=Cc1ccc([N+](=O)[O-])o1" : what was it?
Ans. 0 (no)

Qu. Assay outcome for O=C1CC2=CCCC2O1 (centres undefined) : what was it?
Ans. 0 (no)

Qu. Assay outcome for "CC/C(SC)=[N+](\C)[O-]" : what was it?
Ans. 0 (no)

Qu. Assay outcome for "CCSc1nnc(-c2ccccc2)nc1Cc1ccc(OC)cc1" : what was it?
Ans. 0 (no)

Qu. Assay outcome for [O-]/N=[N+](/[O-])C1CCCCC1=[N+]1CCOCC1 (centres undefined) : what was it?
Ans. 0 (no)

Qu. Assay outcome for "CCOC(=O)CCC(=O)C1c2cccc(O)c2C(=O)c2c(O)cccc21" : what was it?
Ans. 1 (yes)

----------
For each of the compounds below, state its GI50.
Tested on: A498
Assay: NCI tumour cell line growth inhibition, 48 h
The source made the active and inactive calls. Rule as the data show it: active = GI50 up to about 1.1 µM and inactive = higher.

Previously resolved entries follow.
compound: CC1=NOC(=O)/C1=C/c1ccc([N+](=O)[O-])cc1
assay-value: > 100 µM (inactive)

compound: Cc1ccc(-c2c(C#N)c(-c3ccc(Cl)cc3)c(C#N)c(=O)n2NS(=O)(=O)c2ccccc2)cc1
assay-value: 86.7 µM (inactive)

compound: N#CC1C(=S)NC(c2ccccc2)=CC12CCCCC2 (stereo not given)
assay-value: 22.8 µM (inactive)

Please report GI50 for every entry that follows.
1. Cn1cnc([N+](=O)[O-])c1Sc1nc(N)nc2c1ncn2[C@H]1C[C@H](O)[C@@H](CO)O1
2. COc1ccc2nc3cc(Cl)ccc3c(Nc3ccc(O)c(CN4CCN(C)CC4)c3)c2c1
3. Cc1c(Cl)cccc1/N=N/C(=O)NNc1cccc(Cl)c1C
4. Cc1ccc(-n2c(O)c(C#N)c3[nH]nc(N)c3c2=O)cc1
5. OC1(c2ccccc2)C2CC=CC2C1(c1ccccc1)c1ccccc1 (stereo not given)
6. N=C(N)NC(CC(=O)O)c1ccccc1 (stereo not given)
7. CC(C)CCC[C@@H](C)C1CCC2[C@@H]3CC=C4C[C@@H](C(=O)NCC[N+](C)(C)CCCS(=O)(=O)[O-])CC[C@]4(C)C3CC[C@@]21C (stereo not given in full)

Ans.
["5.42 µM (inactive)", "4.51 µM (inactive)", "14.4 µM (inactive)", "> 100 µM (inactive)", "15.8 µM (inactive)", "> 100 µM (inactive)", "> 10 µM (inactive)"]
